# target-desc: cdk4/D (Homo sapiens)
# Sequence (P11802 whole entry): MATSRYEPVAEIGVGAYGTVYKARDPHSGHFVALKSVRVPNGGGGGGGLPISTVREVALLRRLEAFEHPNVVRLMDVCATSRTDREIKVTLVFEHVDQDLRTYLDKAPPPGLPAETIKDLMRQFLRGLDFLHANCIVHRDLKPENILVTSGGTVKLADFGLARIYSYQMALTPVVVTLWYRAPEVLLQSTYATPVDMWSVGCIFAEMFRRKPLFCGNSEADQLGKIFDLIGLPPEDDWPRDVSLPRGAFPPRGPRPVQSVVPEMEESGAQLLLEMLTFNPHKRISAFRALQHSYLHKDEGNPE
# Sequence (P24385 whole entry, further chain): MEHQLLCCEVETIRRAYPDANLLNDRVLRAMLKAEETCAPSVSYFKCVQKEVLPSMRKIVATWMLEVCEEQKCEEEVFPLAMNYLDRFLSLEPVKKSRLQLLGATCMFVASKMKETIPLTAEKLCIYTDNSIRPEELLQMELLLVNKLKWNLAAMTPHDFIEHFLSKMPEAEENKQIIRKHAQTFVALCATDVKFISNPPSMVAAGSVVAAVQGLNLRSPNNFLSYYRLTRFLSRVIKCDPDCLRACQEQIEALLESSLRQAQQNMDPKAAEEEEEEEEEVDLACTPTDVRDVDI
# protocol-summary: Cyclin-Dependent Kinase 4 (cdk4) Assay
# Format: biochemical
# condition-context: Table 1; read-out: cdk4/D IC50
metric: IC50 (nM)

[1] CN1CCN(c2ccc(Nc3ncc4ccc(=O)n(C5CCCCC5)c4n3)cc2)CC1 [Example 133]
[2] O=c1ccc2cnc(Nc3ccc(OC(F)(F)C(F)F)cc3)nc2n1C1CC2CCC1C2 (centres unmarked) [Example 219]
[3] O=c1ccc2cnc(Nc3ccc(N4CCCCC4)cc3)nc2n1C1CCOCC1 [Example 211]
List by increasing IC50. As an answer, provide the labels arranged in the order called for. 1, 3, 2
(1: 4.5 nM, 3: 153 nM, 2: 780 nM)

[a] O=c1ccc2cnc(Nc3ccc(N4CCC(CCO)CC4)cc3)nc2n1C1CC2CCC1C2 (centres unmarked) [Example 228]
[b] O=c1ccc2cnc(Nc3cccc(N4CCCCC4)c3)nc2n1C1CCCC1 [Example 202]
Look at a and b . Which one has the lower recorded IC50 number? Reply briefly: the label of your chosen item. a
(a: 5.5 nM, b: 655 nM)

* * *

# target-desc: cdc2/cyclinB (Homo sapiens, UniProt P06493)
# Sequence (P06493 whole entry): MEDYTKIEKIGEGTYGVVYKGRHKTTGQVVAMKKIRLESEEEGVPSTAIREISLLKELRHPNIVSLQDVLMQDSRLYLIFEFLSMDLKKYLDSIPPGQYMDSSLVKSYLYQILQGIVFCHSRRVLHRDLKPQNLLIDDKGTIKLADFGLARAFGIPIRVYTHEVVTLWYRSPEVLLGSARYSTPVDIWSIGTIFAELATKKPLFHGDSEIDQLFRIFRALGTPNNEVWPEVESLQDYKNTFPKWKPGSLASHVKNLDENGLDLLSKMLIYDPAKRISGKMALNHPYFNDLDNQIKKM
# Sequence (P14635 whole entry, further chain): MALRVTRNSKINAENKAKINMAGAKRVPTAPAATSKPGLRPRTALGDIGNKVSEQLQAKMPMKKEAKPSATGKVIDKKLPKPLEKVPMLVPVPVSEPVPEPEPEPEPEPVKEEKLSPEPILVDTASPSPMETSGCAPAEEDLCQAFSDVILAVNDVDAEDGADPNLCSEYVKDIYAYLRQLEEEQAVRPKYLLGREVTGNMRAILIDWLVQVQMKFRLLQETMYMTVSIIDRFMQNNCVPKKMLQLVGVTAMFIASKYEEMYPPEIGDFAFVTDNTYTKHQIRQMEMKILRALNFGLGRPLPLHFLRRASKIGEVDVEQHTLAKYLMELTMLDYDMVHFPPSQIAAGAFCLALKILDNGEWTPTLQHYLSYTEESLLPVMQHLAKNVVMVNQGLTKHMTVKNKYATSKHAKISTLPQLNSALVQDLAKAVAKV
# protocol-summary: Cyclin-Dependent Kinase Assay cdc2/cyclinB
pIC50: −log10 of the molar value.
metric: pIC50

These solved cases illustrate the format of a correct answer.
| compound | target-desc | pIC50 |
| --- | --- | --- |
| CCC(C)n1c(=O)ccc2cnc(Nc3ccc(F)c(Cl)c3)nc21 (stereo not drawn) [Example 460] | cdc2/cyclinB (Homo sapiens, UniProt P06493) | 6.85 |
| O=c1ccc2cnc(Nc3ccc4[nH]ncc4c3)nc2n1CC(F)(F)F [Example 594] | cdc2/cyclinB (Homo sapiens, UniProt P06493) | 5.72 |
| O=c1ccc2cnc(Nc3ccc(O)c(Cl)c3)nc2n1C1CCCC1 [Example 539] | cdc2/cyclinB (Homo sapiens, UniProt P06493) | 7.55 |
| O=c1ccc2cnc(Nc3ccc(N4CCCC(O)C4)cc3)nc2n1C1CC2CCC1C2 (stereo not drawn) [Example 254] | cdc2/cyclinB (Homo sapiens, UniProt P06493) | 6.76 |

[I] O=c1ccc2cnc(Nc3ccc(N4CCC(O)CC4)cc3)nc2n1C1CC2CCC1C2 (stereo not drawn) [Example 227]
[II] O=c1ccc2cnc(Nc3cc(F)cc(F)c3)nc2n1C1CCCC1 [Example 548]
// max by pIC50 over [ I , II ] Reply briefly: the label of your chosen item. I
(I: 7.08, II: 6.54)

* * *

# target-desc: cdk2/cyclinE (Homo sapiens)
# protocol-summary: Cyclin-Dependent Kinase Assay cdk2/cyclinE
# condition-context: cdk2/E IC50
pIC50: −log10 of the molar value.
metric: pIC50

These solved cases illustrate the format of a correct answer.
| compound | target-desc | metric | endpoint-value |
| --- | --- | --- | --- |
| O=c1ccc2cnc(Nc3ccc(C(F)(F)F)cc3)nc2n1C1CCCC1 | cdk2/cyclinE (Homo sapiens) | pIC50 | 6.85 |
| CCC(C)n1c(=O)ccc2cnc(Nc3ccc(F)c(C(F)(F)F)c3)nc21 (stereo not shown) | cdk2/cyclinE (Homo sapiens) | pIC50 | 7.00 |
| CCC(CC)n1c(=O)ccc2cnc(Nc3ccc(C)c(NC(C)=O)c3)nc21 | cdk2/cyclinE (Homo sapiens) | pIC50 | 6.49 |
| O=c1ccc2cnc(Nc3ccccc3)nc2n1CC(F)(F)F | cdk2/cyclinE (Homo sapiens) | pIC50 | 5.92 |
| CC1Nc2ccc(Nc3ncc4ccc(=O)n(C5CCCC5)c4n3)cc2C1C (stereo not shown) | cdk2/cyclinE (Homo sapiens) | pIC50 | 6.82 |
| CCCn1c(=O)ccc2cnc(Nc3ccc(C#N)c(NC(C)=O)c3)nc21 | cdk2/cyclinE (Homo sapiens) | pIC50 | 6.46 |
| Cc1ccc(Nc2ncc3ccc(=O)n(C4CCCC4)c3n2)cc1NS(C)(=O)=O | cdk2/cyclinE (Homo sapiens) | pIC50 | 7.00 |
| CCn1c(=O)ccc2cnc(Nc3cc([N+](=O)[O-])ccc3F)nc21 | cdk2/cyclinE (Homo sapiens) | pIC50 | 5.64 |
| CCCCn1c(=O)ccc2cnc(Nc3cc(F)cc(F)c3)nc21 | cdk2/cyclinE (Homo sapiens) | pIC50 | 6.52 |
| CCCn1c(=O)ccc2cnc(Nc3ccc(F)c(C(F)(F)F)c3)nc21 | cdk2/cyclinE (Homo sapiens) | pIC50 | 6.80 |

[P] CC(C)n1c(=O)ccc2cnc(Nc3ccc4cn[nH]c4c3)nc21
[Q] CCCCn1c(=O)ccc2cnc(Nc3ccccc3)nc21
[R] CCC(C)n1c(=O)ccc2cnc(Nc3cc(OC)c(OC)c(OC)c3)nc21 (stereo not shown)
Let's sort these by pIC50, smallest first. Go ahead? As an answer, provide the labels arranged in the order called for. P, R, Q
(P: 6.16, R: 6.60, Q: 7.22)

[P] CC(C)n1c(=O)ccc2cnc(Nc3ccc(F)c(C(F)(F)F)c3)nc21
[Q] O=c1[nH]c2ccc(Nc3ncc4ccc(=O)n(CC5CC5)c4n3)cc2[nH]1
[R] O=c1ccc2cnc(Nc3cc(F)cc(F)c3)nc2n1C1CCCC1
[S] CCCn1c(=O)ccc2cnc(Nc3cc(OC)cc(C(F)(F)F)c3)nc21
Let's sort these by pIC50, smallest first. Go ahead? As an answer, provide the labels arranged in the order called for. P, S, R, Q
(P: 6.17, S: 6.43, R: 6.74, Q: 6.96)

[A] CCn1c(=O)ccc2cnc(Nc3cccc(C(F)(F)F)c3)nc21
[B] CCCCn1c(=O)ccc2cnc(Nc3ccc(Cl)c(C)c3)nc21
Look at A and B . Which one has the lower recorded pIC50 number? Reply briefly: the label of your chosen item. A
(A: 6.17, B: 7.00)

* * *

# target-desc: cdk2/cyclinE (Homo sapiens)
# protocol-summary: Cyclin-Dependent Kinase Assay cdk2/cyclinE
# condition-context: cdk2/E IC50
pIC50: −log10 of the molar value.
metric: pIC50

| compound | pIC50 |
| --- | --- |
| Cc1ccc(Nc2ncc3ccc(=O)n(CC4CC4)c3n2)cc1NS(C)(=O)=O [Example 592] | 7.15 |

[A] O=c1ccc2cnc(Nc3ccc(O)c(Cl)c3)nc2n1CC(F)(F)F [Example 597]
[B] CCC(C)n1c(=O)ccc2cnc(Nc3ccc(Cl)c(C)c3)nc21 (stereo not drawn) [Example 456]
Look at A and B . Which one has the lower recorded pIC50 number? Reply briefly: the label of your chosen item. A

[1] CCC(CC)n1c(=O)ccc2cnc(Nc3ccc(Br)c(C(F)(F)F)c3)nc21 [Example 488]
[2] CCC(CC)n1c(=O)ccc2cnc(Nc3cc(F)cc(F)c3)nc21 [Example 510]
Look at 1 and 2 . Which one has the lower recorded pIC50 number? Reply briefly: the label of your chosen item. 1
(1: 6.31, 2: 6.68)

[A] CCC(CC)n1c(=O)ccc2cnc(Nc3ccc(O)c(C(=O)O)c3)nc21 [Example 524]
[B] CCCCn1c(=O)ccc2cnc(Nc3ccc(C)c(C)c3)nc21 [Example 377]
Look at A and B . Which one has the lower recorded pIC50 number? Reply briefly: the label of your chosen item. A
(A: 6.35, B: 6.64)

* * *

# target-desc: Cdk5/p25 (Homo sapiens)
# protocol-summary: Cyclin-Dependent Kinase 5 (cdk5) Assay
# Assay type: biochemical
# condition-context: Table 3
metric: IC50 (nM)

These solved cases illustrate the format of a correct answer.
| record-smiles | endpoint-value |
| --- | --- |
| Cn1c(=O)ccc2cnc(Nc3ccccc3)nc21 | 89 |
| CCC(CC)n1c(=O)ccc2cnc(Nc3ccccc3)nc21 | 8.7 |
| CC(C)n1c(=O)ccc2cnc(Nc3cccc([N+](=O)[O-])c3)nc21 | 21 |

[P] CC(C)n1c(=O)ccc2cnc(Nc3ccc(O)cc3)nc21
[Q] CCn1c(=O)ccc2cnc(Nc3ccc(F)cc3)nc21
[R] COc1ccc(Nc2ncc3ccc(=O)n(C(C)C)c3n2)cc1
Let's sort these by IC50, smallest first. Go ahead? As an answer, provide the labels arranged in the order called for. R, P, Q
(R: 9.8 nM, P: 15 nM, Q: 32 nM)

* * *

# target-desc: cdk2/cyclinE (Homo sapiens)
# protocol-summary: Cyclin-Dependent Kinase Assay cdk2/cyclinE
# condition-context: cdk2/E IC50
metric: IC50 (nM)

[P] CCC(C)n1c(=O)ccc2cnc(Nc3ccc(C)c(Cl)c3)nc21 (stereo not shown)
[Q] CC(=O)Nc1cc(Nc2ncc3ccc(=O)n(CC4CC4)c3n2)ccc1C#N
// max by IC50 over [ P , Q ] Reply briefly: the label of your chosen item. Q
(Q: 270 nM, P: 97 nM)

[I] CCCCn1c(=O)ccc2cnc(Nc3ccc4[nH]ccc4c3)nc21
[II] CCCCn1c(=O)ccc2cnc(Nc3ccc(F)cc3F)nc21
[III] CCCn1c(=O)ccc2cnc(Nc3ccc(C)c(F)c3)nc21
[IV] O=c1ccc2cnc(Nc3ccc4[nH]ccc4c3)nc2n1C1CCCC1
[V] O=c1ccc2cnc(Nc3cccc([N+](=O)[O-])c3)nc2n1CC(F)(F)F
Let's sort these by IC50, smallest first. Go ahead? As an answer, provide the labels arranged in the order called for. IV, I, III, II, V
(IV: 46.5 nM, I: 86 nM, III: 400 nM, II: 836 nM, V: 1700 nM)

[a] CCC(CC)n1c(=O)ccc2cnc(Nc3ccc(Br)c(Cl)c3)nc21
[b] O=c1ccc2cnc(Nc3ccc(F)c([N+](=O)[O-])c3)nc2n1CC1CC1
[c] CCCn1c(=O)ccc2cnc(Nc3ccc4c(c3)CCN4)nc21
Order these by IC50, descending, and give the full ranking. As an answer, provide the labels arranged in the order called for. c, b, a
(c: 700 nM, b: 460 nM, a: 310 nM)

[P] O=c1ccc2cnc(Nc3ccc(O)cc3F)nc2n1C1CCCC1
[Q] COc1ccc(Nc2ncc3ccc(=O)n(C4CCCC4)c3n2)cc1OC
Look at P and Q . Which one has the lower recorded IC50 number? Reply briefly: the label of your chosen item. Q

[1] CC(C)n1c(=O)ccc2cnc(Nc3ccc4c(c3)CCCC4=O)nc21
[2] CCC(CC)n1c(=O)ccc2cnc(Nc3cc([N+](=O)[O-])ccc3F)nc21
Look at 1 and 2 . Which one has the lower recorded IC50 number? Reply briefly: the label of your chosen item. 1

[P] CCC(CC)n1c(=O)ccc2cnc(Nc3cc(Cl)c(N)c(Cl)c3)nc21
[Q] O=c1ccc2cnc(Nc3ccc4[nH]c5ccccc5c4c3)nc2n1CC1CC1
// max by IC50 over [ P , Q ] Reply briefly: the label of your chosen item. Q

[P] CCC(CC)n1c(=O)ccc2cnc(Nc3cc(OC)c(OC)c(OC)c3)nc21
[Q] CCn1c(=O)ccc2cnc(Nc3ccc(C#N)c(NC(C)=O)c3)nc21
// max by IC50 over [ P , Q ] Reply briefly: the label of your chosen item. Q
